# Test system: P388 mouse leukemia cells
# Assay Context: 92 h
Where a SMILES comes first, the peptide text is derived from it. [ ]: non-standard residue; d: D form. The star is where a group is joined. NHCH2CH2OH = OCCN*; For = O=C*
Observed Property: cell viability/% (%)
Please reply with the bare figure in % and do not write the unit itself.

Determine its reported cell viability/%: CNC(=O)C[C@@H](NC(=O)[C@@H](NC(=O)[C@H](NC(=O)[C@H](C)NC(=O)[C@@H](CC(C)C)NC(=O)[C@H](C)NC(=O)CNC(=O)[C@@H](NC=O)C(C)C)C(C)C)C(C)C)C(=O)N[C@@H](Cc1c[nH]c2ccccc12)C(=O)N[C@@H](C(=O)N[C@@H](Cc1c[nH]c2ccccc12)C(=O)N[C@H](CC(C)C)C(=O)N[C@@H](Cc1c[nH]c2ccccc12)C(=O)N[C@@H](C(=O)N[C@@H](Cc1c[nH]c2ccccc12)C(=O)NCCO)C(C)C)C(C)C [compound 9521] (For-VGA[dL]A[dV]V[dD](NHMe)W[dV]W[dL]W[dV]W-NHCH2CH2OH)
100.0

// data source = paper PMC7531004
